Can you tell me GI50 for the items I'm about to list?
# Test system: U-251
# TEST_SUMMARY: NCI tumour cell line growth inhibition, 48 h
Activity calls are given as the source filed them. Cut-off read from the data, not from the text of the source: active = GI50 up to about 1.1 µM and inactive = higher. Residues, ends and D or L forms follow the SMILES beside them. *: point of attachment. Boc = CC(C)(C)OC(=O)*; OBn = c1ccc(CO*)cc1

input: I am curious: what GI50 value has been reported for O=C(O)c1cc(O)nc(SCc2ccccc2)n1 ?
output: > 100 µM (inactive)

input: Then Cc1ccc(-c2nnc(CCCCCCCCc3nnc(-c4ccc(C)cc4O)n3N)n2N)c(O)c1 ?
output: > 100 µM (inactive)

input: Continue with CC1C(NNc2ccccc2)Oc2cc3c(cc2C1c1ccccc1O)OCO3 (centres undefined)
output: 10.1 µM (inactive)

input: Next: O=C(Nc1ccc(Br)c2ccccc12)c1ccc2ccccc2c1O
output: 1.73 µM (inactive)

input: Now the compound COC(=O)C(Cc1ccccc1)NP(=O)(O)OCC1OC(n2cc(Br)c(=O)[nH]c2=O)CC1O (centres undefined)
output: > 100 µM (inactive)

input: Can you check c1ccc(CSP234N5CCN2CCN3CCN4CC5)c(CSP234N5CCN2CCN3CCN4CC5)c1 next?
output: > 100 µM (inactive)

input: Same for O=C(Nc1c(O)[nH]c(=S)[nH]c1=O)c1ccccc1F
output: > 100 µM (inactive)

input: Same again, this time with CCN(CCCN(CC)C(=O)N[C@@H](Cc1ccccc1)C(=O)NC)C(=O)N[C@@H](Cc1ccccc1)C(=O)NC
output: > 100 µM (inactive)

input: Request: C/C=C/C(=O)N1C(=O)OC[C@@H]1c1ccccc1
output: 23.1 µM (inactive)

input: Entry C[C@@H]1OC(=O)C[C@H]2CC(=O)N(CCc3cn(S(=O)(=O)C(F)(F)F)c4ccccc34)C[C@@H]21 please
output: > 100 µM (inactive)

input: Same lookup for Cn1c(=O)c(Br)c(C=O)n(CCO[N+](=O)[O-])c1=O , please.
output: 3.02 µM (inactive)

input: Then what about the compound COc1ccc2c(c1)N(C(C)=O)CN1C(=O)CCC21 (centres undefined) ?
output: > 100 µM (inactive)

input: Another compound to look at: COc1cc2c(c(OC)c1OC)C(=O)[C@H](O)[C@H]2NC(N)=O
output: 44.2 µM (inactive)

input: What about this compound? CC(C)C(NC(=O)C(Cc1ccccc1)NC(=O)OC(C)(C)C)C(=O)NCC(=O)OCc1ccccc1 (stereo not drawn) (Boc-Phe-Val-Gly-OBn; configuration not given here)
output: 17.6 µM (inactive)

input: Subsequent entry: O=C(CC(C(=O)c1ccsc1)c1cccs1)c1ccsc1 (centres undefined)
output: > 100 µM (inactive)

input: Next compound up: Cc1cc(-c2ccccc2)cc2[n+]1CC=C2.[O-][Cl+3]([O-])([O-])[O-]
output: > 100 µM (inactive)

input: Then this compound: O=C1C2C3C=C4c5ccccc5N(c5ccccc5)C4(C2C(=O)N1c1ccc(Br)cc1)[C@H]1C(=O)N(c2ccc(Br)cc2)C(=O)[C@@H]31 (some centres undefined)
output: > 100 µM (inactive)

input: And what about the compound Cc1cc(/C=C/c2cc[n+](C)c3ccccc23)c(O)c2ncccc12 ?
output: 1.23 µM (inactive)

input: Check S=c1sc2c(S)nc(S)nc2n1-c1ccccc1 too.
output: > 100 µM (inactive)

The measurements presented in this section are drawn from ChEMBL document CHEMBL1201862.
